Give measured log fold change Tl+ flux for each item. Keep answers brief.
# Tested on: R275C/beta4
# measurementNotes: modulators of BK channel variants, profiling panel, selectivity assay, cell-based, U2OS BacMam, thallium flux, beta subunits (AID 1259406);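 further: initial slope of Thallos dye fluorescence rise after thallium is added; log ratio against the mean of 0.3% DMSO vehicle wells on the same plate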
# experimentalSetup: at 30 µM
Lab note: jot down the number only; don't add units.

Reported log fold change Tl+ flux for COCCOC(=O)C1=C(C)NC(C)=C(C(=O)OC(C)C)C1c1cccc([N+](=O)[O-])c1 (stereo not given) was -0.0265

The compound CCC(C)(C)C(=O)O[C@H]1C[C@@H](C)C=C2C=C[C@H](C)[C@H](CC[C@@H]3C[C@@H](O)CC(=O)O3)[C@H]21 showed log fold change Tl+ flux equal to 0.067

Short answer for CCn1cc(C(=O)O)c(=O)c2cc(F)c(N3CCN(C)CC3)cc21 : log fold change Tl+ flux was 0.00214

Notebook: NNCCc1ccccc1 , log fold change Tl+ flux read as -0.0112

So for CCC1(c2ccccc2)C(=O)NCNC1=O , the logged log fold change Tl+ flux turned out to be 0.0127
